System: HBV polymerase
run_description: Inhibitory effect on the in vitro activities of HBV polymerase in reverse transcription (ELISA-type)
Assay type: biochemical
measurement_setup: 0.1 μg/ml
Classification field: enter 1 for Inhibitory activity on HBV-RT (%) values not below 60%, -1 for values below it.

These recorded examples may help you get a feel for the data.
{"columns": ["compound", "category_label"],
 "data": [
  ["Cc1ccc(C(=O)Nc2cccnc2)c(Nc2ccc3[nH]ncc3c2)n1 [Example 4]", 1],
  ["Cc1ccc(C(=O)NN2CCN(C)CC2)c(Nc2ccc3cn[nH]c3c2)n1 [Example 17]", -1],
  ["Cc1ccc(C(=O)N2CCOCC2)c(Nc2ccc3cn[nH]c3c2)n1 [Example 23]", -1],
  ["Cc1ccc(C(=O)NC(C)C)c(Nc2ccc3cn[nH]c3c2)n1 [Example 8]", -1]
]}

Inhibitory activity on HBV-RT (%) >= 60% for Cc1ccc(C(=O)NCCc2ccccn2)c(Nc2ccc3[nH]ncc3c2)n1 [Example 6] ?
-1

Answer whether Inhibitory activity on HBV-RT (%) of Cc1ccc(C(=O)NC(C)C)c(Nc2ccc3[nH]ncc3c2)n1 [Example 1] is greater than or equal to 60%.
-1

Item Cc1ccc(C(=O)NC(C)(C)C)c(Nc2ccc3cn[nH]c3c2)n1 [Example 9] with Inhibitory activity on HBV-RT (%) of 60% or above?
-1

Form field: Inhibitory activity on HBV-RT (%) at least 60%? Entry: Cc1ccc(C(=O)NCc2cccnc2)c(Nc2ccc3[nH]ncc3c2)n1 [Example 5]
-1

Does the compound Cc1ccc(C(=O)NCc2cccnc2)c(Nc2ccc3cn[nH]c3c2)n1 [Example 19] have recorded Inhibitory activity on HBV-RT (%) that is 60% or more?
-1

Does the compound Cc1ccc(C(=O)N(N)C(=O)c2cccnc2)c(Nc2ccc3cn[nH]c3c2)n1 [Example 22] have recorded Inhibitory activity on HBV-RT (%) that is 60% or more?
-1

State whether the measured Inhibitory activity on HBV-RT (%) reaches 60%, counting equality as reaching it, for Cc1ccc(C(=O)NCCN2CCCCC2)c(Nc2ccc3cn[nH]c3c2)n1 [Example 15]
-1

Could you please find out whether Cc1ccc(C(=O)NCCN2CCOCC2)c(Nc2ccc3cn[nH]c3c2)n1 [Example 14] has Inhibitory activity on HBV-RT (%) that meets 60% or exceeds it?
1

Check if Inhibitory activity on HBV-RT (%) >= 60% (inclusive). Item: Cc1ccc(C(=O)Nc2cccnc2)c(Nc2ccc3cn[nH]c3c2)n1 [Example 18]
-1

Say whether CNC(=O)c1ccc(C)nc1Nc1ccc2cn[nH]c2c1 [Example 7] shows Inhibitory activity on HBV-RT (%) of 60% or more.
-1

// inclusive: Inhibitory activity on HBV-RT (%) at least 60%? input: Cc1ccc(C(=O)NC2CC2)c(Nc2ccc3cn[nH]c3c2)n1 [Example 11]
-1

Can Cc1ccc(C(=O)NN2CCOCC2)c(Nc2ccc3cn[nH]c3c2)n1 [Example 16] be said to have Inhibitory activity on HBV-RT (%) at or above 60%?
-1

Quick check: does Cc1ccc(C(=O)NCCO)c(Nc2ccc3cn[nH]c3c2)n1 [Example 10] have Inhibitory activity on HBV-RT (%) greater than or equal to 60%?
1

###

target_desc: HIV reverse transcriptase (Human immunodeficiency virus type 1 group M subtype B, UniProt P04585)
Construct: purchased Boehringer Mannheim
run_description: Inhibitory effect on the in vitro HIV reverse transcriptase activity (non-radioactive RT assay kit)
Assay type: biochemical
measurement_setup: 1 μg/ml
# Lookup of reported inhibition at 1 µg/mL keyed by entry
Give the number; % is assumed, so skip it.

{"columns": ["compound", "inhibition at 1 µg/mL [%]"],
 "data": [
  ["Cc1ccc(C(=O)N[C@H]2CC[C@H](O)CC2)c(Nc2ccc3[nH]ncc3c2)n1 [Example 3]", 80],
  ["Cc1ccc(C(=O)NN2CCN(C)CC2)c(Nc2ccc3cn[nH]c3c2)n1 [Example 17]", 84],
  ["Cc1ccc(C(=O)NCCc2ccccn2)c(Nc2ccc3[nH]ncc3c2)n1 [Example 6]", 77],
  ["Cc1ccc(C(=O)Nc2cccnc2)c(Nc2ccc3[nH]ncc3c2)n1 [Example 4]", 64],
  ["Cc1ccc(C(=O)NCCN2CCCCC2)c(Nc2ccc3cn[nH]c3c2)n1 [Example 15]", 78],
  ["Cc1ccc(C(=O)N(N)c2ccccn2)c(Nc2ccc3cn[nH]c3c2)n1 [Example 21]", 75]
]}

So, Cc1ccc(C(=O)NCCN2CCOCC2)c(Nc2ccc3cn[nH]c3c2)n1 [Example 14] ? Its inhibition at 1 µg/mL was 70

The measured inhibition at 1 µg/mL associated with Cc1ccc(C(=O)NCCCn2ccnc2)c(Nc2ccc3cn[nH]c3c2)n1 [Example 20] reads 88

inhibition at 1 µg/mL reading for Cc1ccc(C(=O)NCc2cccnc2)c(Nc2ccc3[nH]ncc3c2)n1 [Example 5] : 69
